assay: Clearance in rat at 10 mg/kg, po
Type: ADME, organism-based
Set-up: dose 10 mg/kg, route oral
testParameters: in vivo
measuredQuantity: CL/F (mL/min)
Answer with a number only, understood to be in mL/min.

Input line: Quote CL/F reported for `COc1cccc2c1C[C@H]1C[C@@H](C(=O)N3CCN(c4ccc([N+](=O)[O-])cc4)CC3)CN(C)[C@@H]1C2` please.
Output line: 5

====

Each entry below lists one item and its recorded Kp at 1 h value.
assay: Ratio of drug level in brain to plasma in mouse at 10 mg/kg, po after 1 hr
Assay type: ADME, organism-based
Set-up: dose 10 mg/kg, route oral
testParameters: brain and plasma, read-out: BPR
// response body must contain only the number

Examples with answers:
COc1cccc2c1C[C@H]1C[C@@H](C(=O)N3CCN(c4ccc5nsnc5c4)CC3)CN(C)[C@@H]1C2; 4.8
COc1cccc2c1C[C@H]1C[C@@H](C(=O)N3CCN(c4ccc(F)c(F)c4)CC3)CN(C)[C@@H]1C2; 7.5

Input line: Output Kp at 1 h of `COc1cccc2c1C[C@H]1C[C@@H](C(=O)N3CCN(c4ccc5nsnc5n4)CC3)CN(C)[C@@H]1C2`
Output line: 1.8
